Where do the numbers come from? From the supplement of paper PMC12783771.

B1: library; a variant is named by its letters at X, in order (parent)
chain: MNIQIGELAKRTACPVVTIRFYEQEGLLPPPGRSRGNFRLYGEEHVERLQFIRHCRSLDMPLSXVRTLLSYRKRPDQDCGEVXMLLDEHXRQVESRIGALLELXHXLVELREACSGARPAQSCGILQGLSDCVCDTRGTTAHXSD

variants of: B1; test: sfGFP reporter fluorescence (15 h) (µM FITC); higher = stronger transcriptional activation; details: library round: Round 3b; ligand: 30 µM Zn
# binarize sfGFP reporter fluorescence: threshold 0.06 inclusive, high side Fulfilled, low side Not fulfilled

{"columns": ["mutant_code", "class_label"],
 "data": [
  ["KFIKAT", "Not fulfilled"],
  ["DFATEP", "Not fulfilled"],
  ["KFAKAP", "Fulfilled"],
  ["DFAKER", "Not fulfilled"]
]}

# bool: sfGFP reporter fluorescence of KFAVHR >= 0.06
Fulfilled

And DFAVAR ?
Not fulfilled

And KFITAP ?
Fulfilled

And DNIKHP ?
Fulfilled

And DFIVAT ?
Not fulfilled

And KFIVER ?
Fulfilled

And DIAVHR ?
Not fulfilled

And DIAVER ?
Not fulfilled

And DIAVET ?
Not fulfilled

And KIATHT ?
Fulfilled

And DNAVAT ?
Fulfilled

And KIATHR ?
Fulfilled
